B1: ADD1 (parent)
chain: FASDGDSGTCSPLRHSFQKQQREK

variants of: B1; assay: protein stability index of a GFP-peptide fusion (GPS, HEK-293T) (PSI 1-6); higher = more stable; settings: c terminus: a fixed tail appended;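 further: lentivirally expressed fusions sorted by FACS into six bins by GFP to DsRed ratio, PSI derived from sequencing read proportions per bin multiplied by bin number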
MEASURED PROPERTY: protein stability index

protein stability index measured on K24F = 2.96

protein stability index measured on R14P = 5.13

protein stability index measured on G8F = 1.44

protein stability index measured on Q21T = 3.99

protein stability index measured on Q20L = 2.69
